assay: Therapeutic index, ratio of MCC50 for human HeLa cells to MIC for inhibition of flavodoxin in metronidazole-resistant Helicobacter pylori isolate 1 assessed as reduction in bacterial growth; type: toxicity; details: read-out: TI
EXPERIMENTAL ENDPOINT: selectivity ratio
No unit in the answer, only the number.

Below are worked cases with known answers.
COMPOUND: O=[N+]([O-])CCc1cc(C(F)(F)F)cc(C(F)(F)F)c1
MEASUREMENT: 9
--
COMPOUND: O=[N+]([O-])CCc1ccccc1
MEASUREMENT: 4.7
--
COMPOUND: COc1ccc(CS(=O)(=O)c2ccc(N)c3nonc23)cc1
MEASUREMENT: 10
--
COMPOUND: COc1ccc(CSc2cc(Cl)c(N)c3nonc23)cc1
MEASUREMENT: 161
--
COMPOUND: O/N=C/Cc1cc(C(F)(F)F)cc(C(F)(F)F)c1
MEASUREMENT: 4.2

We now examine a further compound.
Param item = COc1ccc(C[S+]([O-])c2ccc(N)c3nonc23)cc1 (stereo unspecified) ; retrieve measured selectivity ratio.
9.5

----------
system: Staphylococcus aureus; assay: Effect on growth of Staphylococcus aureus ATCC 1228 after 48 hrs by resazurin-dye based microdilution assay; format: organism-based

COMPOUND: ONCCc1ccccc1
Activity: Non-Toxic

COMPOUND: COc1ccc(C[S+]([O-])c2ccc(N)c3nonc23)cc1 (stereo not drawn)
Activity: Non-Toxic

COMPOUND: COc1ccc(CSc2cc(Cl)c(N)c3nonc23)cc1
Activity: Non-Toxic

----------
assay: Therapeutic index, ratio of MCC50 for human HeLa cells to MIC for inhibition of flavodoxin in clarithromycin/metronidazole-resistant Helicobacter pylori isolate 6 assessed as reduction in bacterial growth; format: toxicity; details: read-out: TI
EXPERIMENTAL ENDPOINT: selectivity ratio
Could you keep your reply to the number by itself?

Illustrative cases are given below, each with its answer.
COMPOUND: O/N=C/Cc1cc(C(F)(F)F)cc(C(F)(F)F)c1
selectivity ratio: 4.2
//
COMPOUND: O=[N+]([O-])CCc1ccccc1
selectivity ratio: 4.7
//
COMPOUND: COc1ccc(CSc2cc(Cl)c(N)c3nonc23)cc1
selectivity ratio: 322

Consider the compound shown here: COc1ccc(C[S+]([O-])c2ccc(N)c3nonc23)cc1 (stereo unspecified) What is its recorded selectivity ratio?
9.5

Param item: O=[N+]([O-])CCc1cc(C(F)(F)F)cc(C(F)(F)F)c1
9

Another: COc1ccc(CS(=O)(=O)c2ccc(N)c3nonc23)cc1
10

----------
experiment: Therapeutic index, ratio of MCC50 for human HeLa cells to MIC for inhibition of flavodoxin in Mnz-resistant Helicobacter pylori NCTC 11637 ATCC 43504 assessed as reduction in bacterial growth; type: toxicity; details: read-out: TI
EXPERIMENTAL ENDPOINT: selectivity ratio

Sample records with selectivity ratio:
COMPOUND: O=[N+]([O-])CCc1cc(C(F)(F)F)cc(C(F)(F)F)c1
selectivity ratio: > 18

COMPOUND: COc1ccc(CS(=O)(=O)c2ccc(N)c3nonc23)cc1
selectivity ratio: > 10

COMPOUND: O=[N+]([O-])CCc1ccccc1
selectivity ratio: > 4.7

COMPOUND: O/N=C/Cc1cc(C(F)(F)F)cc(C(F)(F)F)c1
selectivity ratio: > 8.5

selectivity ratio for O/N=C1\Cc2cc(Cl)cc(Cl)c2OC1c1ccc(F)cc1 (stereo not drawn) ?
19

And what about the compound Cc1ncc(N)n1CCO ?
> 4.4

Follow-up entry: NCCc1cc(C(F)(F)F)cc(C(F)(F)F)c1
> 16

Same thing, different compound: NCCc1ccccc1 [PHENETHYLAMINE]
> 15

----------
# MIC annotations
target: Flavodoxin (Helicobacter pylori (strain ATCC 700392 / 26695) (Campylobacter pylori)) (UniProt O25776); test: Inhibition of flavodoxin in Helicobacter pylori SS1 assessed as reduction in bacterial growth measured after 48 hrs by resazurin staining-based microdilution method
Sequence (O25776 whole entry): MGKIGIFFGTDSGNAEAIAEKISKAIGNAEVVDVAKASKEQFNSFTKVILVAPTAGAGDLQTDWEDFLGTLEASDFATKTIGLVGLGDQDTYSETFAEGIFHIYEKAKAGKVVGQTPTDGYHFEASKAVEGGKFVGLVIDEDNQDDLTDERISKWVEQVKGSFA
Please give a number only; it is taken to be in µM.

Here's what some known entries look like.
COMPOUND: O=[N+]([O-])CCc1cc(C(F)(F)F)cc(C(F)(F)F)c1
MEASUREMENT: 223
//
COMPOUND: O=[N+]([O-])C1=Cc2cc(Cl)cc(Cl)c2OC1c1ccc(F)cc1 (stereo not drawn)
MEASUREMENT: 0.37
//
COMPOUND: COc1ccc(CS(=O)(=O)c2ccc(N)c3nonc23)cc1
MEASUREMENT: 100
//
COMPOUND: NCCc1ccccc1 [PHENETHYLAMINE]
MEASUREMENT: 132
//
COMPOUND: COc1ccc(C2(C)SCc3cc(C)c(C)cc3CS2)cc1
MEASUREMENT: 6.1
//
COMPOUND: O/N=C1\Cc2cc(Cl)cc(Cl)c2OC1c1ccc(F)cc1 (stereo not drawn)
MEASUREMENT: 12
//
COMPOUND: COc1ccc(C[S+]([O-])c2ccc(N)c3nonc23)cc1 (stereo not drawn)
MEASUREMENT: 105
//
COMPOUND: COc1ccc(CSc2ccc(N)c3nonc23)cc1
MEASUREMENT: 13.9
//
COMPOUND: COc1ccc(CSc2ccc([N+](=O)[O-])c3nonc23)cc1
MEASUREMENT: 0.78

Okay, next one:
# input compound: O=[N+]([O-])CCc1ccccc1 ; wanted: its MIC
212

----------
biological target: Flavodoxin (Helicobacter pylori (strain ATCC 700392 / 26695) (Campylobacter pylori)); experiment: Inhibition of flavodoxin in Mnz-resistant Helicobacter pylori NCTC 11637 ATCC 43504 assessed as reduction in bacterial growth measured after 48 hrs by resazurin staining-based microdilution method; conditions: Helicobacter pylori NCTC 11637 = CCUG 17874 = ATCC 43504
EXPERIMENTAL ENDPOINT: MIC (µM)
Please respond with the number in µM and leave the unit unwritten.

COMPOUND: COc1ccc(CS(=O)(=O)c2ccc(N)c3nonc23)cc1
MEASUREMENT: 100

COMPOUND: O=[N+]([O-])/C=C/c1cc(C(F)(F)F)cc(C(F)(F)F)c1
MEASUREMENT: 3.5

COMPOUND: COc1ccc(CSc2ccc([N+](=O)[O-])c3nonc23)cc1
MEASUREMENT: 1.6

COMPOUND: COc1ccc(CSc2ccc(N)c3nonc23)cc1
MEASUREMENT: 27.8

COMPOUND: NCCc1cc(C(F)(F)F)cc(C(F)(F)F)c1
MEASUREMENT: 31

Looking for the measured MIC of Cc1ncc([N+](=O)[O-])n1CCO , can you help?
187

And for O/N=C/Cc1cc(C(F)(F)F)cc(C(F)(F)F)c1 ?
59

And then COc1ccc(C[S+]([O-])c2ccc(N)c3nonc23)cc1 (centres undefined) , what is it?
53

----------
target: Flavodoxin (Helicobacter pylori (strain ATCC 700392 / 26695) (Campylobacter pylori)); test: Inhibition of flavodoxin in Helicobacter pylori SS1 assessed as reduction in bacterial growth measured after 48 hrs by resazurin staining-based microdilution method
Consider the cut-off 3 µM. If the recorded MIC is strictly smaller, the label is fulfilled; if not, the label is not fulfilled.

COMPOUND: O=[N+]([O-])/C=C/c1c(F)cc(Cl)cc1F
QUALITATIVE LABEL: fulfilled
//
COMPOUND: O=[N+]([O-])/C=C/c1cc(C(F)(F)F)cc(C(F)(F)F)c1
QUALITATIVE LABEL: fulfilled
//
COMPOUND: COc1ccc(C[S+]([O-])c2ccc([N+](=O)[O-])c3nonc23)cc1 (stereo unspecified)
QUALITATIVE LABEL: not fulfilled
//
COMPOUND: O/N=C/Cc1cc(C(F)(F)F)cc(C(F)(F)F)c1
QUALITATIVE LABEL: not fulfilled
//
COMPOUND: Cc1ncc([N+](=O)[O-])n1CCO
QUALITATIVE LABEL: fulfilled

Let's switch to this compound now.
Quick check: does COc1ccc(CSc2cc(Cl)c(N)c3nonc23)cc1 have MIC under 3 µM?
not fulfilled

----------
assay: Therapeutic index, ratio of MCC50 for human HeLa cells to MIC for inhibition of flavodoxin in metronidazole-resistant Helicobacter pylori isolate 3 assessed as reduction in bacterial growth; format: toxicity; conditions: read-out: TI
EXPERIMENTAL ENDPOINT: selectivity ratio
# print the numeric value only

COMPOUND: O=[N+]([O-])CCc1cc(C(F)(F)F)cc(C(F)(F)F)c1
selectivity ratio: 9

COMPOUND: O=[N+]([O-])CCc1ccccc1
selectivity ratio: 4.7

COMPOUND: COc1ccc(C[S+]([O-])c2ccc(N)c3nonc23)cc1 (stereo unspecified)
selectivity ratio: 9.5

COMPOUND: COc1ccc(CSc2cc(Cl)c(N)c3nonc23)cc1
selectivity ratio: 10

COMPOUND: O/N=C/Cc1cc(C(F)(F)F)cc(C(F)(F)F)c1
selectivity ratio: 4.2

Here is the next item to consider.
// returns reported selectivity ratio for input COc1ccc(CS(=O)(=O)c2ccc(N)c3nonc23)cc1
20
